test: Water solubility determined spectroscopically (absorbance at 280 nm); format: physicochemical; conditions: direct dissolution of powder in bidistilled water, centrifuged solutions, UV absorbance at 280 nm with calculated ε
Non-standard residues stand in square brackets, D forms with d. Residues, ends and D or L forms follow the SMILES beside them. Dopa = N[C@@H](Cc1ccc(O)c(O)c1)C(=O)O; AEEA = NCCOCCOCC(=O)O
VALUE_KIND: solubility thermodynamic (µg/mL)

{"MOLECULE": "NCCOCCOCC(=O)NCCOCCOCC(=O)NCCOCCOCC(=O)NCCOCCOCC(=O)N[C@@H](Cc1c[nH]c2ccccc12)C(=O)N[C@@H](Cc1ccc(O)cc1)C(=O)N[C@@H](Cc1c[nH]c2ccccc12)C(=O)N[C@@H](Cc1ccc(O)cc1)C(=O)N[C@@H](Cc1c[nH]c2ccccc12)C(=O)N[C@@H](Cc1ccc(O)cc1)C(N)=O [PEG8-(WY)3] (H-[AEEA][AEEA][AEEA][AEEA]WYWYWY-NH2)", "VAL": 3770}
{"MOLECULE": "NC(=O)[C@H](Cc1ccc(O)c(O)c1)NC(=O)[C@H](Cc1c[nH]c2ccccc12)NC(=O)[C@H](Cc1ccc(O)c(O)c1)NC(=O)[C@H](Cc1c[nH]c2ccccc12)NC(=O)[C@H](Cc1ccc(O)c(O)c1)NC(=O)[C@@H](N)Cc1c[nH]c2ccccc12 [(W-Dopa)3] (H-W[Dopa]W[Dopa]W[Dopa]-NH2)", "VAL": 7610}
{"MOLECULE": "NCCOCCOCC(=O)NCCOCCOCC(=O)NCCOCCOCC(=O)NCCOCCOCC(=O)N[C@@H](Cc1c[nH]c2ccccc12)C(=O)N[C@@H](Cc1ccc(O)c(O)c1)C(=O)N[C@@H](Cc1c[nH]c2ccccc12)C(=O)N[C@@H](Cc1ccc(O)c(O)c1)C(=O)N[C@@H](Cc1c[nH]c2ccccc12)C(=O)N[C@@H](Cc1ccc(O)c(O)c1)C(N)=O [PEG8-(W-Dopa)3] (H-[AEEA][AEEA][AEEA][AEEA]W[Dopa]W[Dopa]W[Dopa]-NH2)", "VAL": 15000}

----------
Assay: Water solubility determined spectroscopically (absorbance at 280 nm)
Type: physicochemical
Settings: direct dissolution of powder in bidistilled water, centrifuged solutions, UV absorbance at 280 nm with calculated ε
Method: Peptide solutions were prepared by direct dissolution of pure powders in bidistilled water. The analytical concentration of solutions was spectroscopically determined by absorbance on a UV–vis Thermo Fisher Scientific Inc. (Wilmington, Delaware, USA) Nanodrop 2000c spectrophotometer equipped with a 1.0 cm quartz cuvette (Hellma) using the molar absorptivity (ε) at 280 nm reported in Table 1. For each peptide, the ε was calculated using the formula ε(280)= [x·5500 + y·1215 + k·2630] […]
No end group written: not given here.

{"SUBSTANCE": "WYWYWY-NH2 [(WY)3]", "READOUT_UNITS": "µg/mL", "solubility thermodynamic": 1150}
